- Tested on: hERG potassium channels (Homo sapiens, UniProt Q12809)
- Construct: expressed in transfected cells; host or cells: HEK-293 (membranes)
- Sequence (Q12809 whole entry): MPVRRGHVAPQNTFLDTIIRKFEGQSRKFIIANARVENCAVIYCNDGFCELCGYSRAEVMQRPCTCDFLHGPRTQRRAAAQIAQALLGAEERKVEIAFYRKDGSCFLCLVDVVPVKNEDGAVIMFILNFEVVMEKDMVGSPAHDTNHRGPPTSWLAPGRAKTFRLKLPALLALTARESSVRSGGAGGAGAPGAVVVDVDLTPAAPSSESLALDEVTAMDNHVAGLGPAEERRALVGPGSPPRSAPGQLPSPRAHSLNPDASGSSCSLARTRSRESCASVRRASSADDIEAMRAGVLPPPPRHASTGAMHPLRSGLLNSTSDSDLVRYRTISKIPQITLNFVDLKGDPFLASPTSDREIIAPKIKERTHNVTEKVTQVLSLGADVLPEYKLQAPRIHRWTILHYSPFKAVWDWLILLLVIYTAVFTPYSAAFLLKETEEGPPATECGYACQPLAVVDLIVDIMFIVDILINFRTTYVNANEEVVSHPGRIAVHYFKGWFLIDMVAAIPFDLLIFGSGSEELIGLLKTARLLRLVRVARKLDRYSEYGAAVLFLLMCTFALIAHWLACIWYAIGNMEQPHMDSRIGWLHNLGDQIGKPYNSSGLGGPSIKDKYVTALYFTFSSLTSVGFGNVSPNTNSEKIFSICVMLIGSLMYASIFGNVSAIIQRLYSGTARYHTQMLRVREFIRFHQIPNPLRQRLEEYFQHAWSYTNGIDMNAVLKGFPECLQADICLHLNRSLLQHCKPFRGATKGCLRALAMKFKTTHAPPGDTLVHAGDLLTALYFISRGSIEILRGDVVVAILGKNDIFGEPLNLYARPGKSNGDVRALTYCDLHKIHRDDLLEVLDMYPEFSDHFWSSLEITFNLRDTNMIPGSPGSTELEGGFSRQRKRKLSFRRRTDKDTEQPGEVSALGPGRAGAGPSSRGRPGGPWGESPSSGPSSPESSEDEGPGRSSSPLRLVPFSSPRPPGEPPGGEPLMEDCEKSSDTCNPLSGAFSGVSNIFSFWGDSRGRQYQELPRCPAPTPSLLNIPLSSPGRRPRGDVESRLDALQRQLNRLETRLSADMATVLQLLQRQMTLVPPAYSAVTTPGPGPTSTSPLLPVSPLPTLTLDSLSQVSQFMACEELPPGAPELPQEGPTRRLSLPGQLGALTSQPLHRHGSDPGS
- Experiment notes: hERG binding assay ([35S]MK-499 displacement)
- Assay context: 1 μM; [35S]MK-499, HEK-293 hERG membranes
Quantity: % inhibition for hERG assay, 1 μM (%)
Give the value, in units of %, as a plain number.

Fill in: % inhibition for hERG assay, 1 μM of CCCCCCC[C@](O)(C(N)=O)c1cccc(Cl)c1 [Compound (R)-(−)-1] is ___
26

Fill in: % inhibition for hERG assay, 1 μM of CCCCCCC[C@@](O)(C(N)=O)c1cccc(Cl)c1 [Compound (S)-(+)-1] is ___
25

Fill in: % inhibition for hERG assay, 1 μM of CCCCCCCC(O)(C(N)=O)c1cccc(Cl)c1 (racemic) [(±)-1] is ___
17

Fill in: % inhibition for hERG assay, 1 μM of O=C1NC(=O)C(c2ccccc2)(c2ccccc2)N1 [DPH, Diphenylhydantoin, reference compound] is ___
20

====

So I've got a bunch of compounds here, and I need their [3H]-BTX-B Binding Data, Displacement % values.
- Test system: site 2 of the VGSC
- Experiment notes: [3H]-BTX-B displacement assay at site 2
- Assay type: binding, rat
- Assay context: Screen at 40 μM, 2 replicates, referenced to Aconitine
Give the value, in units of %, as a plain number.

# value lookup — system site 2 of the VGSC, readout [3H]-BTX-B Binding Data, Displacement %, item CN(C)c1cccc2c(S(=O)(=O)NCCCCCC3(c4cccc(Cl)c4)NC(=O)NC3=O)cccc12 (stereo not shown)
86

# value lookup — system site 2 of the VGSC, readout [3H]-BTX-B Binding Data, Displacement %, item O=C1NC(=O)C(CCCCCC2CC2)(c2cccc(Cl)c2)N1 (stereo not shown)
8

# value lookup — system site 2 of the VGSC, readout [3H]-BTX-B Binding Data, Displacement %, item O=C1NC(=O)C(c2ccccc2)(c2ccccc2)N1 [DPH, Diphenylhydantoin, reference compound]
50

# value lookup — system site 2 of the VGSC, readout [3H]-BTX-B Binding Data, Displacement %, item C#CC(O)(CCCCCCC)c1cccc(Cl)c1 (stereo not shown)
78

====

- Tested on: human Nav1.2 (Homo sapiens, UniProt Q99250)
- Construct: host or cells: HEK
- Sequence (Q99250 whole entry): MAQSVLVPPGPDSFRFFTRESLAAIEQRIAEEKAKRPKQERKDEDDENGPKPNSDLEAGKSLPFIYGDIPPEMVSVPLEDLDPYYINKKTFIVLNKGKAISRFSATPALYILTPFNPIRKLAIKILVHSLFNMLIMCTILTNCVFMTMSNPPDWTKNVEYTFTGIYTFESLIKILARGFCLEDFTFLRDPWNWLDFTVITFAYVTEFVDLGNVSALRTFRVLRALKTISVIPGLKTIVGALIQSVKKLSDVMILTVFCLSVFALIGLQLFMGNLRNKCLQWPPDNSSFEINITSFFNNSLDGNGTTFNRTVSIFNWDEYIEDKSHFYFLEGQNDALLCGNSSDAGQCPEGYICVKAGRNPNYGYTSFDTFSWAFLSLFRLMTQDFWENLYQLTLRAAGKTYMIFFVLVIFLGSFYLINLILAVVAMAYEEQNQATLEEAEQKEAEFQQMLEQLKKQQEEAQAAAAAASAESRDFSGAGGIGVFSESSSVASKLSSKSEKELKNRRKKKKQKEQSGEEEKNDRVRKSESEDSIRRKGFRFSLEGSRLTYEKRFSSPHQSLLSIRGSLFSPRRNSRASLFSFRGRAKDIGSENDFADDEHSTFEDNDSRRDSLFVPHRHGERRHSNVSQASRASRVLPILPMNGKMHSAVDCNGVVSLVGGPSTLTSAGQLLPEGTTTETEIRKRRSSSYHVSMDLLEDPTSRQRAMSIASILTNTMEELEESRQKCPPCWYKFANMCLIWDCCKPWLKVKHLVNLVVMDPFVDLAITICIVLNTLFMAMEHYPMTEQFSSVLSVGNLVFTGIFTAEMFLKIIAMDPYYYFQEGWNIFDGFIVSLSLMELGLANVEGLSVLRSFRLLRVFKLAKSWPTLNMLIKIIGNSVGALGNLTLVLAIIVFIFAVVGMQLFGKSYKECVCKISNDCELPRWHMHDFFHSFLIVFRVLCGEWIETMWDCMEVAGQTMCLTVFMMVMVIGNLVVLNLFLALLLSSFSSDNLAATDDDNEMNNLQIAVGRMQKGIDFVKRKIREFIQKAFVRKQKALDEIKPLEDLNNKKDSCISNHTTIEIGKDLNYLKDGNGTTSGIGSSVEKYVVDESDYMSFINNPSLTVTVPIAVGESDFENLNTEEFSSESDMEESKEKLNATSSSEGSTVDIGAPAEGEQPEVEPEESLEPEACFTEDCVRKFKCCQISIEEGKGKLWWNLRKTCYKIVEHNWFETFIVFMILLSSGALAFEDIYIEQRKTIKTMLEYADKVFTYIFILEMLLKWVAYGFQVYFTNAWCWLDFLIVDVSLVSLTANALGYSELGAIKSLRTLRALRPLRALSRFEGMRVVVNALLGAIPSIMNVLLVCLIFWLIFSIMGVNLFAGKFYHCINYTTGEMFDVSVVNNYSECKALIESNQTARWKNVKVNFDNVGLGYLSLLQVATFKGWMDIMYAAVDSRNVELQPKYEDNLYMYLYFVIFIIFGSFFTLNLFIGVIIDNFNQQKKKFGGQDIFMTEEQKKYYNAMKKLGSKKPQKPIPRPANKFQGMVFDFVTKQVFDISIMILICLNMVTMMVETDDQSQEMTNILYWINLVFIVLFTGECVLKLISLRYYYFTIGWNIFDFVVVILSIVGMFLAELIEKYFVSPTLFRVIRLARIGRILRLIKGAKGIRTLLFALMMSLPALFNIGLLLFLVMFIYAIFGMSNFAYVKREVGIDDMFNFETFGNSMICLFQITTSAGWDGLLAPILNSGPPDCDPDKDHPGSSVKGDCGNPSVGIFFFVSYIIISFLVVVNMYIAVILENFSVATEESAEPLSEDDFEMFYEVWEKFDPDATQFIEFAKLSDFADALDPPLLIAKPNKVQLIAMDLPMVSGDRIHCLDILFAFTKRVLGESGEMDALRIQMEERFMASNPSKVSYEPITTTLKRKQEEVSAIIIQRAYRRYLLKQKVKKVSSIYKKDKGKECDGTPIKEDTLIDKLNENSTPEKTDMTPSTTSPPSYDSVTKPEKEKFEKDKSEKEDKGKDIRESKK
- Experiment notes: Sodium channel electrophysiology of hermitamides (patch clamp)
- Assay type: cell-based
- Assay context: 1 μM; HEK human Nav1.2
Quantity: Patch-clamp percentage block, 1 μM

# value lookup — system human Nav1.2 (Homo sapiens, UniProt Q99250), readout Patch-clamp percentage block, 1 μM, item CCCCCCC[C@@H](C/C=C/CCC(=O)NCCc1c[nH]c2ccccc12)OC [(S)-hermitamide B]
80%

# value lookup — system human Nav1.2 (Homo sapiens, UniProt Q99250), readout Patch-clamp percentage block, 1 μM, item CCCCCCC[C@@H](C/C=C/CCC(=O)NCCc1ccccc1)OC (racemic) [rac-hermitamide A]
49.7 ± 3.8 (4) %

# value lookup — system human Nav1.2 (Homo sapiens, UniProt Q99250), readout Patch-clamp percentage block, 1 μM, item CCCCCCC[C@H](C/C=C/CCC(=O)O)OC [(R)-lyngbic acid, (7R,4E)-Methoxytetradecenoic Acid]
52.5 ± 3.9 (4) %

# value lookup — system human Nav1.2 (Homo sapiens, UniProt Q99250), readout Patch-clamp percentage block, 1 μM, item CCCCCCC[C@@H](C/C=C/CCC(=O)NCCc1ccccc1)OC [(S)-hermitamide A, Phenethyl (7S,4E)-methoxytetradecenamide]
~50%

# value lookup — system human Nav1.2 (Homo sapiens, UniProt Q99250), readout Patch-clamp percentage block, 1 μM, item CCCCCCC[C@H](C/C=C/CCC(=O)NCCc1ccccc1)OC [(R)-hermitamide A, Phenethyl (7R,4E)-methoxytetradecenamide]
58.7 ± 1.3 (4) %

# value lookup — system human Nav1.2 (Homo sapiens, UniProt Q99250), readout Patch-clamp percentage block, 1 μM, item CCCCCCC[C@@H](C/C=C/CCC(=O)NCCc1c[nH]c2ccccc12)OC (racemic) [rac-hermitamide B]
88.4 ± 2.9 (40%

# value lookup — system human Nav1.2 (Homo sapiens, UniProt Q99250), readout Patch-clamp percentage block, 1 μM, item CCCCCCC[C@H](C/C=C/CCC(=O)NCCc1c[nH]c2ccccc12)OC [(R)-hermitamide B]
93.6 (1) %

====

- Tested on: hNav1.5 (Homo sapiens, UniProt Q14524)
- Construct: expressed in transfected cells; host or cells: HEK293
- Experiment notes: Fluorescent (FRET) based sodium channel assay, hNav1.5
- Assay type: cell-based
- Assay context: HEK293 stably transfected with hNav1.5, 10 μM veratridine, read-out: hNav 1.5 IC50
Quantity: IC50

Fill in: IC50 of O=C1NC(=O)C(c2ccccc2)(c2ccccc2)N1 [DPH, Diphenylhydantoin, reference compound] is ___
> 100 µM

====

- System: Na+ channel site 2 binding site
- Experiment notes: [3H]-BTX assay, rat forebrain membranes
- Assay context: ± S.E.M., n in brackets
So I've got a bunch of compounds here, and I need their % [3H]-BTX Displacement At 10 μM values.

# value lookup — system Na+ channel site 2 binding site, readout % [3H]-BTX Displacement At 10 μM, item CCCCCCC[C@@H](C/C=C/CCC(=O)NCCc1ccccc1)OC (racemic) [rac-hermitamide A]
15.71 ± 0.14 (2) %

# value lookup — system Na+ channel site 2 binding site, readout % [3H]-BTX Displacement At 10 μM, item O=C1NC(=O)C(c2ccccc2)(c2ccccc2)N1 [DPH, Diphenylhydantoin, reference compound]
19.78 ± 1.21 (2) %

# value lookup — system Na+ channel site 2 binding site, readout % [3H]-BTX Displacement At 10 μM, item CCCCCCC[C@H](C/C=C/CCC(=O)NCCc1ccccc1)OC [(R)-hermitamide A, Phenethyl (7R,4E)-methoxytetradecenamide]
13.79 ± 1.28 (2) %

# value lookup — system Na+ channel site 2 binding site, readout % [3H]-BTX Displacement At 10 μM, item CCCCCCC[C@H](C/C=C/CCC(=O)NCCc1c[nH]c2ccccc12)OC [(R)-hermitamide B]
20.31 ± 5.82 (2) %

# value lookup — system Na+ channel site 2 binding site, readout % [3H]-BTX Displacement At 10 μM, item CCCCCCC[C@@H](C/C=C/CCC(=O)O)OC [(S)-lyngbic acid, (7S,4E)-Methoxytetradecenoic Acid]
7.77 ± 2.20 (2) %

# value lookup — system Na+ channel site 2 binding site, readout % [3H]-BTX Displacement At 10 μM, item CCCCCCC[C@@H](C/C=C/CCC(=O)NCCc1c[nH]c2ccccc12)OC [(S)-hermitamide B]
29.02 ± 0.29 (2) %

# value lookup — system Na+ channel site 2 binding site, readout % [3H]-BTX Displacement At 10 μM, item CCCCCCC[C@H](C/C=C/CCC(=O)O)OC [(R)-lyngbic acid, (7R,4E)-Methoxytetradecenoic Acid]
11.91 ± 0.16 (2) %

# value lookup — system Na+ channel site 2 binding site, readout % [3H]-BTX Displacement At 10 μM, item CCCCCCC[C@@H](C/C=C/CCC(=O)NCCc1c[nH]c2ccccc12)OC (racemic) [rac-hermitamide B]
36.05 ± 0.77 (2) %

# value lookup — system Na+ channel site 2 binding site, readout % [3H]-BTX Displacement At 10 μM, item CCCCCCC[C@@H](C/C=C/CCC(=O)NCCc1ccccc1)OC [(S)-hermitamide A, Phenethyl (7S,4E)-methoxytetradecenamide]
15.89 ± 3.06 (2) %

# value lookup — system Na+ channel site 2 binding site, readout % [3H]-BTX Displacement At 10 μM, item CCCCCCCC(C/C=C/CCC(=O)O)OC (racemic)
7.35 ± 2.88 (2) %

====

So I've got a bunch of molecules here, and I need their % inhibition for hERG assay, 30 μM values.
- Tested on: hERG potassium channels (Homo sapiens, UniProt Q12809)
- Construct: expressed in transfected cells; host or cells: HEK-293 (membranes)
- Experiment notes: hERG binding assay ([35S]MK-499 displacement)
- Assay context: 30 μM; [35S]MK-499, HEK-293 hERG membranes
- Text: All four compounds were also counter-screened for human ether-a-go-go-related gene (hERG) activity against the radio-ligand MK-0499. Blockade of hERG K^+ channels is widely regarded as the predominant cause of drug-induced QT prolongation. (Aronov, A J Med Chem. 2006 Nov. 16; 49(23):6917-21). […]
Give the value, in units of %, as a plain number.

# value lookup — system hERG potassium channels (Homo sapiens, UniProt Q12809), readout % inhibition for hERG assay, 30 μM, item O=C1NC(=O)C(c2ccccc2)(c2ccccc2)N1 [DPH, Diphenylhydantoin, reference compound]
40

# value lookup — system hERG potassium channels (Homo sapiens, UniProt Q12809), readout % inhibition for hERG assay, 30 μM, item CCCCCCC[C@@](O)(C(N)=O)c1cccc(Cl)c1 [Compound (S)-(+)-1]
90

# value lookup — system hERG potassium channels (Homo sapiens, UniProt Q12809), readout % inhibition for hERG assay, 30 μM, item CCCCCCC[C@](O)(C(N)=O)c1cccc(Cl)c1 [Compound (R)-(−)-1]
90

# value lookup — system hERG potassium channels (Homo sapiens, UniProt Q12809), readout % inhibition for hERG assay, 30 μM, item CCCCCCCC(O)(C(N)=O)c1cccc(Cl)c1 (racemic) [(±)-1]
78
